Measured values drawn from patent US10844064B2 for this set.

Target: sGC enzyme (Homo sapiens, UniProt Q02108+Q02153)
Construct: host or cells: HEK293 expressing GloSensor 40F cGMP
Sequence (Q02108 1-690): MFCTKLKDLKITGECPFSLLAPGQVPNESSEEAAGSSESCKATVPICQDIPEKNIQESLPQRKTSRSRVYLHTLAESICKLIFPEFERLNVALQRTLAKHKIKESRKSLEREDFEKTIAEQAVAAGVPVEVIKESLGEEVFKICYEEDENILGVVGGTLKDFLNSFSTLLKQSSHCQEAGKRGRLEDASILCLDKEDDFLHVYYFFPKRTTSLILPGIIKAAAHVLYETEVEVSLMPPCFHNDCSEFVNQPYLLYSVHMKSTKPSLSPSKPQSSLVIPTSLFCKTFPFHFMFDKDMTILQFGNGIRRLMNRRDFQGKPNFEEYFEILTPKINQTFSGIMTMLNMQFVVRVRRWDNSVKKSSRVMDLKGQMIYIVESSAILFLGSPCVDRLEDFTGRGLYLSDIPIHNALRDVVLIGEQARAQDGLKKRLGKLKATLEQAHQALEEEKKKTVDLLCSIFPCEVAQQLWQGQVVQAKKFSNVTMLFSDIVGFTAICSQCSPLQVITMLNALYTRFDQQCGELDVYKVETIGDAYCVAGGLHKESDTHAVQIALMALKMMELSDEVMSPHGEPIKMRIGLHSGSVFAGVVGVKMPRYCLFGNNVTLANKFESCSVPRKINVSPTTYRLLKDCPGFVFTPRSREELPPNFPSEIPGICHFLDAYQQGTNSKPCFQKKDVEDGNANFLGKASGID
Sequence (Q02153 1-619): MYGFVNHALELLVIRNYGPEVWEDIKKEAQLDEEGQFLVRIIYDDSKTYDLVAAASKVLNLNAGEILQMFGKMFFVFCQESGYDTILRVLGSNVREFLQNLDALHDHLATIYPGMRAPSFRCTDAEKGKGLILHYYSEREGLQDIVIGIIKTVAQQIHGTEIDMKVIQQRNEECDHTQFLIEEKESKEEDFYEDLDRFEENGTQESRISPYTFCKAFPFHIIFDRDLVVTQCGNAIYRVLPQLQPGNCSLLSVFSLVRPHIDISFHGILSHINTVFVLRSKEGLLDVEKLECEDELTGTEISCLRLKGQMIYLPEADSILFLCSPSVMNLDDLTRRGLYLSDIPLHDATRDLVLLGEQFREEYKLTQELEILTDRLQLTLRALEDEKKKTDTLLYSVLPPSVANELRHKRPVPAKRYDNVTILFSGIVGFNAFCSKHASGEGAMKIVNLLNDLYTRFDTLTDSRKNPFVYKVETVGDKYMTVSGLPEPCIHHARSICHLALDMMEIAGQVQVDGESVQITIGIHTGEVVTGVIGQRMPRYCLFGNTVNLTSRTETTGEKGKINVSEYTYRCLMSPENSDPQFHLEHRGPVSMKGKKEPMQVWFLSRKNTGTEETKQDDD
Experiment: cGMP GloSensor cell-based assay, 384-well format (Example 2B)
Conditions: HEK293 GloSensor 40F cGMP cells, 10 μM DETA-NONOate; 50% of high control response (Compound Y); read-out: sGC_HEK_GloSensor EC50/IC50 Abs (Norm) (nM) Binned
Please go through the items and note down their EC50.

Quick one: give measured EC50 for "COc1cc(-c2ncc3c(n2)N(CC2CC2)C(=O)C3(C)C)nn1Cc1ccccc1F"
> 1000 nM

Quick one: give measured EC50 for "COc1cn(-c2nc(O)c3c(n2)NC(=O)C3(C)C)nc1Cc1ccccc1F"
< 100 nM

Quick one: give measured EC50 for "COc1c(C)c(-c2nc(O)c3c(n2)NC(=O)C3(C)C)nn1Cc1ccccc1F"
> 1000 nM

Quick one: give measured EC50 for "CCCOc1cc(-c2ncc3c(n2)NC(=O)C3(C)C)nn1Cc1ccccc1F"
> 1000 nM

Quick one: give measured EC50 for "CC1(C)C(=O)Nc2nc(-c3ccn(Cc4ccccc4F)n3)nc(NCC3CC3)c21"
100 to 1000 nM

Quick one: give measured EC50 for "COc1cc(-c2ncc3c(n2)NCC3(C)C)nn1Cc1ccccc1F"
100 to 1000 nM

Quick one: give measured EC50 for "COc1c(C)c(-c2ncc3c(n2)NC(=O)C3(C)C)nn1Cc1ccccc1F"
100 to 1000 nM

Quick one: give measured EC50 for "CC1(C)C(=O)Nc2nc(-n3cc(-c4ccon4)c(Cc4ccccc4F)n3)nc(N)c21"
< 100 nM
